Source: ChEMBL document CHEMBL1201862

tested on: SF-539; assay: NCI tumour cell line growth inhibition, 48 h
Active and inactive are the calls of the source. Rule as the data show it: active = GI50 up to about 1.1 µM and inactive = higher.
readout: GI50

O=c1c(-c2cccc3ccccc23)c(-c2cccc3ccccc23)c1=O	1.38 µM (inactive)
O=C(C=P(c1ccccc1)(c1ccccc1)c1ccccc1)c1ccc(-c2cccc([N+](=O)[O-])c2)s1	63.4 µM (inactive)
O=C(N/S(=N/S(=O)(=O)c1ccc(Br)cc1)C(Cl)(Cl)Cl)c1ccccc1 (centres undefined)	> 100 µM (inactive)
N#CC(=S)Nc1cccc(Cl)c1	25.9 µM (inactive)
O/N=C1\CC2(N3CCOCC3)CCC1(Cc1ccccc1)CC2	23.2 µM (inactive)
C/C(=N/N)c1ccc2[nH]c3c(C)cc([N+](=O)[O-])c(C)c3c2c1	4.76 µM (inactive)

Dear colleague, I am looking for the recorded GI50 of the following molecule: O=C1NC(=O)C(=O)C(c2nc3ccccc3s2)C1=O
> 100 µM (inactive)

Please answer likewise for O=C1OC(C(O)CO)C(O)=C1O (centres undefined)
> 100 µM (inactive)

Please answer likewise for Cc1cc2c(cc1C)[n+]([O-])c(NCCCN(C)C)c(C#N)[n+]2[O-]
> 100 µM (inactive)
